Where do these numbers come from? They come from patent US12037324B2.

Biological target: hAT1R (Homo sapiens, UniProt P30556)
Sequence (P30556 1-359): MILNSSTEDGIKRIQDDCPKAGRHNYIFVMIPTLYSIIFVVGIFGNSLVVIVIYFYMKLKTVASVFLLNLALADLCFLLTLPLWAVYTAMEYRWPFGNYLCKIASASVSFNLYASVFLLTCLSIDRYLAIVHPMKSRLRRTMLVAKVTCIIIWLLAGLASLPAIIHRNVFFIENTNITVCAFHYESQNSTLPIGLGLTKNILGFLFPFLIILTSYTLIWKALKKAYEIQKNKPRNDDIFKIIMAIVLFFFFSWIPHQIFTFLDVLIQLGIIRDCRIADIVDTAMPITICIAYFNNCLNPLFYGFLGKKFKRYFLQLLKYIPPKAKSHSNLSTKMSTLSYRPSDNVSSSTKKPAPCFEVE
Assay: BRET β-arrestin2 biosensor assay, higher receptor expression (hAT1R 5 ng/well), HEK293 cells
Format: cell-based
Criterion: BRET β-Arrestin2 High AT1R Expression Ymax (%) meeting or surpassing 70%. Met: class 1. Not met: class 0.

> print(dat)
                                   compound                       target.of.assay  answer.label
1  CCc1nc2c(C)cc(C)nc2n1Cc1ccc(-c2cc(Oc3cc(C)ccn3)ccc2-c2nn[nH]n2)cc1  hAT1R (Homo sapiens, UniProt P30556)       class 1
2  CCCCC(=O)N(Cc1ccc(-c2cc(-c3cc(C)ccn3)ccc2-c2nn[nH]n2)cc1)C1(C(=O)O)CCCCC1  hAT1R (Homo sapiens, UniProt P30556)       class 1
3  CCc1nc2c(C)cc(C)nc2n1Cc1ccc(-c2cc(C3CCCCO3)ccc2-c2nn[nH]n2)cc1 (single isomer, unassigned)  hAT1R (Homo sapiens, UniProt P30556)       class 1

input: Hi, just wondering whether CCCCC1=NC2(CCCC2)C(=O)N1Cc1ccc(-c2cc(N3CCC[C@H](C)C3)ccc2-c2nn[nH]n2)cc1 shows BRET β-Arrestin2 High AT1R Expression Ymax (%) of 70% or higher.
output: class 0

input: // same read-out, input: CCCCC1=NC2(CCCC2)C(=O)N1Cc1ccc(-c2cc(-c3ccsc3)ccc2-c2nn[nH]n2)cc1
output: class 1

input: What do we get for CCc1nc2c(C)cc(C)nc2n1Cc1ccc(-c2cc(C3=NCCC3)ccc2-c2nn[nH]n2)cc1 ?
output: class 1

input: Try this compound too: CCCCOC(=O)NS(=O)(=O)c1sc(-c2ccccc2C)cc1-c1ccc(Cn2c(CC)nc3c(C)cc(C)nc32)cn1
output: class 0

input: Proceed to CCCCC(=O)N(Cc1ccc(-c2cc(-c3ccccc3)ccc2-c2nn[nH]n2)cc1)[C@]1(C(=O)O)CC[C@H](O)CC1
output: class 1

###

Biological target: AGTR1 (Homo sapiens, UniProt P30556)
Construct: host or cells: Pathunter CHO-K1 AGTR1 β-arrestin cell line (CHO-K1)
Sequence (P30556 1-359): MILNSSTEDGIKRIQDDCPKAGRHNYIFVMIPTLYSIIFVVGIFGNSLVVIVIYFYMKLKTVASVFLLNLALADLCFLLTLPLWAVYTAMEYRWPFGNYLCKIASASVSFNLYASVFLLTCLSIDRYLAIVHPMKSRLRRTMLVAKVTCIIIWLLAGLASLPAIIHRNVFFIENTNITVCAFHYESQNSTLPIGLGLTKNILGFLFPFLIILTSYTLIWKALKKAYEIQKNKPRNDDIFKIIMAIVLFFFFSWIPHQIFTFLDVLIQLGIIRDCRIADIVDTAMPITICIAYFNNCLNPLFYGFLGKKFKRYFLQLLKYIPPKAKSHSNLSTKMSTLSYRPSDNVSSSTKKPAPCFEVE
Test: DiscoveRx β-arrestin2 recruitment assay (enzyme complementation, Pathunter CHO-K1 AGTR1 β-arrestin cell line)
Type: cell-based
Conditions: DiscoveRx β-arrestin2 recruitment, maximal response
Value Kind: DiscoveRx β-arrestin2 Ymax (%)

> print(dat)
                                   compound  value
1  CCc1nc2c(C)cc(C)nc2n1Cc1ccc(-c2cc(-c3ccccc3)ccc2-c2nn[nH]n2)cc1F  52.9%
2  CCC1=NC2(CCOC2)C(=O)N1Cc1ccc(-c2cc(-c3ccccc3O)ccc2-c2nnn[nH]2)cc1 (single isomer, unassigned) [Example 170]  63.4%
3  CCCCC1=NC2(CCCC2)C(=O)N1Cc1ccc(-c2cc(-c3cccc(F)c3F)ccc2-c2noc(=O)[nH]2)cc1  33.3%

input: Requested field: DiscoveRx β-arrestin2 Ymax (%). Item: CCC1=NC2(CCCC2)C(=O)N1Cc1ccc(-c2cc(-c3ccccc3)ccc2-c2nn[nH]n2)cc1
output: 33.4%

input: What about CC1=NC2(CCCC2)C(=O)N1Cc1ccc(-c2cc(-c3cc(C)ccn3)ccc2-c2nn[nH]n2)cc1 ?
output: 63.3%

input: Same again, this time with CCc1nc2c(C)cc(C)nc2n1Cc1cnc(-c2cc(-c3cccc(C)c3)ccc2-c2nnn[nH]2)nc1
output: 20.2%

###

# EC50 per record follows
molecular target: hAT1R (Homo sapiens); experiment: cell-based; settings: agonist mode; read-out: BRET P63 EC50
The answer is to be given in nM; state only the numeric part.

Solved entries (count: 6):
> print(dat)
                                   molecule  value.kind  unit.info  value
1  CCOc1nc2cccc(C(=O)O)c2n1Cc1ccc(-c2cc(-n3cc(C(C)C)nn3)ccc2-c2nn[nH]n2)cc1 [Example 344]        EC50         nM   16.8
2  CCc1nc2c(C)cc(C)nc2n1Cc1ccc(-c2cc(Oc3cc(Cl)ccn3)ccc2-c2nn[nH]n2)cc1 [Example 251]        EC50         nM   11.1
3  CCc1nc2c(C)cc(C)nc2n1Cc1ccc(-c2cc(Oc3ccc(F)cc3F)ccc2-c2nnn[nH]2)cc1 [Example 208]        EC50         nM   13.3
4  CCc1nc2c(C)cc(C)nc2n1Cc1ccc(-c2cc(-c3cn(CC(F)F)nn3)ccc2-c2nnn[nH]2)cc1 [Example 242]        EC50         nM   41.6
5  CCC1=NC2(CCOC2)C(=O)N1Cc1ccc(-c2cc(-c3ccccc3O)ccc2-c2nnn[nH]2)cc1 (single isomer, unassigned) [Example 167]        EC50         nM   91.5
6  CCc1nc2c(C)cc(C)nc2n1Cc1ccc(-c2cc(-c3cc(C)cc(C)c3)ccc2C(=O)O)cc1 [Example 181]        EC50         nM   47.5

Turning now to a further record.
input: What does the data say about its EC50? Entry: CCc1nc2c(C)cc(C)nc2n1Cc1ccc(-c2cc(-n3cc(C)c(C)n3)ccc2-c2nnn[nH]2)cc1 [Example 223]
output: 5.9

###

Readings of log10(EC50) for the listed compounds
biological target: AGTR1 (Homo sapiens, UniProt P30556); construct: host or cells: Pathunter CHO-K1 AGTR1 β-arrestin cell line (CHO-K1); experiment: DiscoveRx β-arrestin2 recruitment assay (enzyme complementation, Pathunter CHO-K1 AGTR1 β-arrestin cell line); assay type: cell-based; settings: DiscoveRx β-arrestin2 recruitment
A value of 2 here means EC50 of 100 in nM, since values are log10.

Observe how each entry below is paired with its result.
> print(dat)
                                   compound                       target.of.assay   value.kind  value
1  CCc1nc2c(C)cc(C)nc2n1Cc1ccc(-c2cc(-c3cccc(C(F)(F)F)n3)ccc2-c2nn[nH]n2)cc1 [Example 61]  AGTR1 (Homo sapiens, UniProt P30556)  log10(EC50)   1.50
2  CCC1=NC2(CCOC2)C(=O)N1Cc1ccc(-c2cc(-c3ccccc3)ccc2-c2nnn[nH]2)cc1 (single isomer, unassigned) [Example 168]  AGTR1 (Homo sapiens, UniProt P30556)  log10(EC50)   2.55
3  CCc1nc2c(C)cc(C)nc2n1Cc1ccc(-c2cc(-n3cc4ccccc4n3)ccc2-c2nnn[nH]2)cc1 [Example 216]  AGTR1 (Homo sapiens, UniProt P30556)  log10(EC50)   0.98
4  CCc1nc2c(C)cc(C)nc2n1Cc1ccc(-c2cc(-n3cc(C(C)C)nn3)ccc2-c2nnn[nH]2)cc1 [Example 227]  AGTR1 (Homo sapiens, UniProt P30556)  log10(EC50)   1.51
5  CCc1nc2c(C)cc(C)nc2n1Cc1ccc(-c2cc(-c3ccc(OC)cc3)ccc2-c2nn[nH]n2)cc1 [Example 14]  AGTR1 (Homo sapiens, UniProt P30556)  log10(EC50)   1.01
6  CCCCc1nc(Cl)c(C(=O)O)n1Cc1ccc(-c2cc(N3CCC[C@@H](C)C3)ccc2-c2nn[nH]n2)cc1 [Example 419]  AGTR1 (Homo sapiens, UniProt P30556)  log10(EC50)   2.08

API: the following record is the query input.
input: Reported log10(EC50) for CCCCC1=NC2(CCCC2)C(=O)N1Cc1ccc(-c2cc(-c3ccc(C(=O)NC)cc3)ccc2-c2nn[nH]n2)cc1 [Example 124] : what is it?
output: 1.81
